These data points were gathered from BindingDB's records for doi:10.1007/bf00168557.

# target-under-test: UniProt P28565
# Sequence (P28565 whole entry): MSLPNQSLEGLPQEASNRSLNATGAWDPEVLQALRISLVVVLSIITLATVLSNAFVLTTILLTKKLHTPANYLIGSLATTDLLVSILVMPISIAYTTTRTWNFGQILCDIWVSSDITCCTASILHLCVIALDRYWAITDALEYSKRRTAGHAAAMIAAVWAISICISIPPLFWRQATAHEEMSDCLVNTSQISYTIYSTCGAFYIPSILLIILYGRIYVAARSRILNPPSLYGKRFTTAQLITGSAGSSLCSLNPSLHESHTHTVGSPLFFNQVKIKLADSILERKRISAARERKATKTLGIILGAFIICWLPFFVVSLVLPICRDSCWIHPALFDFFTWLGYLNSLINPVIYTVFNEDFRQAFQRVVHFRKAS
measured-metric: Ki (nM)
One number for each entry, in nM.

### Prompt What value of Ki has been recorded for this entry: O=c1[nH]c2ccccc2n1CCN1CCN(c2ccc(C(F)(F)F)cc2)CC1
### Response 2510

* * *

System: 5-hydroxytryptamine receptor 4 (Rattus norvegicus, UniProt Q62758) | Read-out: pKi
Sequence (Q62758 whole entry): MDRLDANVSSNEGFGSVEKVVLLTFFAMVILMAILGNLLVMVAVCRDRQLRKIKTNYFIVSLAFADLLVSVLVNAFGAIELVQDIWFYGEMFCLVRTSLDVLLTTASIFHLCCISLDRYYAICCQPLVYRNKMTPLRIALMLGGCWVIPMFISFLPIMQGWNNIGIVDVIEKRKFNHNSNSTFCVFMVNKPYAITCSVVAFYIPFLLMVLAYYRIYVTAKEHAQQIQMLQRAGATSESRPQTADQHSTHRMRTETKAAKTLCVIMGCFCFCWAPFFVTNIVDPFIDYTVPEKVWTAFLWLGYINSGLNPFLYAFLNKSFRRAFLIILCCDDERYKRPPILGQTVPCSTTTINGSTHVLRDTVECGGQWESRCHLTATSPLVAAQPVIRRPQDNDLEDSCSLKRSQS
pKi: −log10 of the molar value.

Solved entries:
# molecule, pKi
records = [
    ("O=c1[nH]c2ccccc2n1CCN1CCN(c2ccc(C(F)(F)F)cc2)CC1", "< 5.00"),
    ("O=C1CC2(CCCC2)CC(=O)N1CCCCN1CCN(c2ncccn2)CC1", "< 5.00"),
    ("CCn1c(=O)n(C(=O)NC2CC3CCC(C2)N3C)c2ccccc21 (centres undefined)", 9.72),
]

We next turn to a different molecule, shown below.
### Prompt What value of pKi has been recorded for this entry: CCCN(CCC)C1CCc2cccc(O)c2C1 (centres undefined)
### Response < 5.00
